target: cIAP2-MALT1 fusion protein (Homo sapiens, UniProt Q9UDY8); assay: cell-based
Sequence (Q9UDY8 2-824 limits assumed): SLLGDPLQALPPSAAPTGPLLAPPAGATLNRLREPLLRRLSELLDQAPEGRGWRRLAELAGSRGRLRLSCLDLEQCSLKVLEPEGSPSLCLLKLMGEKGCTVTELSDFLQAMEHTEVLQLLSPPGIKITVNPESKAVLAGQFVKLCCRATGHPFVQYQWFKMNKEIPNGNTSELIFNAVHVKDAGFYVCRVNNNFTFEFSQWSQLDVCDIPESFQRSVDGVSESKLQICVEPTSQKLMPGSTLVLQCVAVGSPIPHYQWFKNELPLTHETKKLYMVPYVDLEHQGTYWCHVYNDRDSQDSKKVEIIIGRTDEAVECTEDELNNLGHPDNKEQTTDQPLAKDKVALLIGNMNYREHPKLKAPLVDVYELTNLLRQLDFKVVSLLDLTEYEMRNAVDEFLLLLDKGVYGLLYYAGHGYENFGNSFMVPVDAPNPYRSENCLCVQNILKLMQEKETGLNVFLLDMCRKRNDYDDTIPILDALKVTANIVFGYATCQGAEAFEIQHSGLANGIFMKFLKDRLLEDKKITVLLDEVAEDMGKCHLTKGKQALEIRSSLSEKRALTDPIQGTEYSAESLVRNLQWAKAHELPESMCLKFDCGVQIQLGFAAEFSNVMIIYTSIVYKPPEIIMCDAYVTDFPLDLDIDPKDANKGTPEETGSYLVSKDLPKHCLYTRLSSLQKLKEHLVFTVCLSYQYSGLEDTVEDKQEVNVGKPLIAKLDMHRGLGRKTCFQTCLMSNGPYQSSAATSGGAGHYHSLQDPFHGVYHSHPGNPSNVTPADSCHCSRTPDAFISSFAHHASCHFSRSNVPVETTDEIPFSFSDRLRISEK
result.type: IC50 (nM)

Examples with their reported IC50 follow.
Tell me reported IC50 for COCCO[C@H](C)c1c(NC(=O)Nc2cnc(-n3nccn3)c(Cl)c2)cnc2cc(Cl)nn12 , tested with cIAP2-MALT1 fusion protein (Homo sapiens, UniProt Q9UDY8).
378

Moving on to COCC1(c2c(NC(=O)Nc3ccnc(C(F)(F)F)c3)cnc3cc(C)nn23)CC1
408

A. Cn1ccnc1-c1c(NC(=O)Nc2cnc(-n3nccn3)c(Cl)c2)cnc2cc(Cl)nn12
B. O=C(Nc1cnc(-n2nccn2)c(Cl)c1)Nc1cnc2cc(Cl)nn2c1C1CCOC1 (stereo not shown)
Which of the two items, A and B , has the greater recorded IC50? Pick one; state its label.
A

----------
target: cIAP2-MALT1 fusion protein (Homo sapiens, UniProt Q9UDY8); assay: cell-based
result.type: IC50 (nM)

Examples with their reported IC50 follow.
Record request: IC50 value, item CC(C)c1c(NC(=O)Nc2cncc(Br)c2)cnc2cc(Cl)nn12
85

Moving on to COC(=O)c1cc(Cl)cc(NC(=O)Nc2cnc3cc(Cl)nn3c2[C@H](C)OC)c1
77

P. O=C(Nc1cnc(-n2nccn2)c(Cl)c1)Nc1cnc2cc(Cl)nn2c1C1CCC1
Q. Cc1cnn(-c2ncc(NC(=O)Nc3cnc4cc(Cl)nn4c3C(C)C)cc2Cl)n1
R. COC(c1c(NC(=O)Nc2ccnc(C(F)(F)F)c2)cnc2cc(Cl)nn12)C1CCOCC1 (centres unmarked)
Exam item: list the entries in increasing order of IC50. Please list each label once, in the requested order.
Q, P, R
(Q: 74 nM, P: 176 nM, R: 696 nM)

A. CO[C@@H](C)c1c(NC(=O)Nc2cnc(-n3nccn3)c(Cl)c2)cnc2cc(C)nn12
B. Cc1c(NC(=O)Nc2cnc(-n3nccn3)c(Cl)c2)cnc2cc(Cl)nn12
Lower value for measured IC50? Options: A , B Pick one; state its label.
A
(A: 79 nM, B: 345 nM)

----------
Please consider the recorded pIC50 for C-domain of MALT1 (amino acids 329-824) (Homo sapiens (Human), UniProt Q9UDY8) in what follows.
pIC50: −log10 of the molar value.
result.type: pIC50

Examples with their reported pIC50 follow.
Record request: pIC50 value, item CO[C@H](c1c(NC(=O)Nc2ccnc(C(F)(F)F)c2)cnc2cc(Cl)nn12)C(C)C [Example 75]
8.30

Moving on to O=C(Nc1cnc(-n2nccn2)c(Cl)c1)Nc1cnc2cc(Cl)nn2c1CC1CCOCC1 [Example 60]
7.59

Moving on to COC(C)(C)c1c(NC(=O)Nc2cnc(-n3nccn3)c(Cl)c2)cnc2cc(Cl)nn12 [Example 14]
8.52

Moving on to CN(C)C(=O)c1c(NC(=O)Nc2cnc(-n3nccn3)c(Cl)c2)cnc2cc(Cl)nn12 [Example 70]
6.91

1. COCCO[C@@H](C)c1c(NC(=O)Nc2cnc(-n3nccn3)c(Cl)c2)cnc2cc(Cl)nn12 [Example 39]
2. CO[C@@H](C)c1c(NC(=O)Nc2cnc(-n3nccn3)c(Cl)c2)cnc2cc(C#N)nn12 [Example 96]
Lower value for measured pIC50? Options: 1 , 2 Pick one; state its label.
2
(2: 8.00, 1: 8.52)

----------
target: cIAP2-MALT1 fusion protein (Homo sapiens); assay: cell-based
result.type: IC50 (nM)

a. COCCO[C@@H](C)c1c(NC(=O)Nc2cnc(OC)c(Cl)c2)cnc2cc(Cl)nn12 [Example 40]
b. CO[C@@H](C)c1c(NC(=O)Nc2ccnc(Cl)c2)cnc2cc(Cl)nn12 [Example 12]
c. CC(C)c1c(NC(=O)Nc2cnc(-n3cc(CN)cn3)c(Cl)c2)cnc2cc(Cl)nn12 [Example 118]
Rank the 3 compounds: largest IC50 first, smallest last. Please list each label once, in the requested order.
c, a, b

// data source = patent US9815842B2
